test system: SNB-19 CNS; assay: NCI-60 one-dose screen, 48 h (100 = growth as untreated, 0 = no growth, -100 = all killed); details: 10 µM unless noted
About 83,000 compounds went through this panel and 20% of them were active in at least one assay; those are over-represented in the sample as a whole.
Exam item: assign 1.0 to entries whose growth is below 70% and 0.0 to entries at or above 70%. Note that a value of exactly 70% receives 0.0.

Prompt: I wonder whether "c1ccc(-c2nc3ccccc3[nH]2)c(OCCCCCOc2ccccc2-c2nc3ccccc3[nH]2)c1" has growth below 70%. Can you tell?
Completion: 0.0

Prompt: I wonder whether "COc1cc(/C=C/C(=O)c2cccc(-n3cc(-c4ccc(Cl)cc4)[nH]c3=O)c2)ccc1O" has growth below 70%. Can you tell?
Completion: 0.0

Prompt: I wonder whether "Cc1ccc(OCCOCCOCCOc2ccc(C)n(O)c2=S)c(=S)n1O" has growth below 70%. Can you tell?
Completion: 1.0

Prompt: I wonder whether "O=C(NCc1ccc(Cn2c(=O)sn(-c3ccccc3)c2=O)cc1)OCc1ccc2cccc(O)c2n1" has growth below 70%. Can you tell?
Completion: 1.0

Prompt: I wonder whether "C=C(C)[C@@H]1CC[C@]2(CO)CC[C@]3(C)[C@H](CC[C@@H]4[C@@](C)(CCCN)[C@H](C(=C)C)CC[C@]43C)[C@@H]12" has growth below 70%. Can you tell?
Completion: 1.0

Prompt: I wonder whether "O=C(O)c1cn(C2CC2)c2cc(N3CCN(C(=O)N/N=C/c4cccc5ccccc45)CC3)c(F)cc2c1=O" has growth below 70%. Can you tell?
Completion: 0.0

Prompt: I wonder whether "CCOC(=O)c1[nH]cc2c1CCc1sc(Nc3ccccn3)nc1-2" has growth below 70%. Can you tell?
Completion: 0.0

Prompt: I wonder whether "Oc1c(I)cc(I)cc1CN(Cc1ccccn1)Cc1ccccn1" has growth below 70%. Can you tell?
Completion: 1.0
